- System: PC-3 prostate
- test: NCI-60 one-dose screen, 48 h (100 = growth as untreated, 0 = no growth, -100 = all killed)
- run-parameters: 10 µM unless noted
This is part of a sample that, as a whole, favours compounds with a hit. Of some 83,000 tested, about 20% had one in any assay.
Could you please mark yes for values of growth below 40% and no for values at or above it?

Worked cases, answers included:
In [3]: df
Out[3]:
                                   molecule  classification
0  CCCCCCCCCCCCCCCCCCOc1ccccc1CC(=O)NCC[N+]1(C)CCCC1             yes
1      O=C1C(Cl)=C(Oc2ccccc2)C(=O)c2ccccc21              no
2          O=c1oc2c(cnc3ccccc32)cc1-c1ccsc1              no
3  O=C(OCc1ccc2cccc(O)c2n1)N1CCN(C(=O)c2cc3cc(F)ccc3[nH]2)CC1             yes
4  COc1ccc(C(=O)Nc2cccc(C3CC(=O)c4c(cc(OC)c(OC)c4OC)O3)c2)cc1 (stereo not drawn)             yes
5  CN1CCN(C(=O)OCc2ccc3c(Cl)cc(Cl)c(O)c3n2)CC1              no
6  COc1cc(-c2nc(SCCC(C)C)nc(Nc3ccccc3Cl)c2C#N)cc(OC)c1OC              no
7          c1ccc(CNc2c3ccccc3nc3ccccc23)cc1             yes

**Q:** Decide: growth of O=C(O)c1[nH]c(=O)[nH]c(=O)c1[N+](=O)[O-] strictly below 40%?
**A:** no

**Q:** Again, but for O=c1oc2ccc([N+](=O)[O-])cc2cc1Br
**A:** no

**Q:** Entry to check: O=C1/C(=C/c2ccc(F)cc2)COc2ccc(O)c(O)c21
**A:** yes

----------
- Test system: MDA-MB-435 melanoma
- test: NCI-60 one-dose screen, 48 h
- run-parameters: 10 µM unless noted
The panel holds about 83,000 compounds, 20% with a hit somewhere; the sample as a whole holds those more often. The source made the active and inactive calls. Rule for the calls: active = growth percent below 10; inactive = the rest.
Write down the outcome that applies. Available outcomes: 1 for active, -1 for inactive

compound	classification
CN1CCN(Cc2ccc(NC(=O)c3cncc(C#Cc4cnc(N)c5ccccc45)c3)cc2C(F)(F)F)CC1	1
c1cnc2[nH]cc(-c3csc(-c4cn(CCCN5CCOCC5)c5ccccc45)n3)c2c1	1

**Q:** Which outcome did this test record for the compound Cn1c(-c2ccc(Br)cc2)c(O)c(=O)c2c(F)cccc21 ?
**A:** -1

**Q:** Then this compound: N#Cc1nn(-c2cc(=O)[nH]c3ccc(Cl)cc23)c(N)c1C#N
**A:** -1

----------
- Test system: MOLT-4 leukemia
- test: NCI-60 one-dose screen, 48 h (100 = growth as untreated, 0 = no growth, -100 = all killed)
- run-parameters: 10 µM unless noted
Compounds without any hit were thinned out: in the full panel of roughly 83,000, 20% have a hit.
outcome-measure: growth (%)
Kindly provide the numeric value in % only, without the unit symbol.

                                   molecule  experimental_system  endpoint_result
0  Brc1ccc(-n2cc(-c3nn[nH]n3)c(-c3cccs3)n2)cc1      MOLT-4 leukemia              101
1   O=[N+]([O-])/C(=C/C=C/c1ccccc1)c1ccccc1      MOLT-4 leukemia             34.4
2  Nc1nc2c([nH]1)c1[nH]c3ccccc3c1c1[nH]c3ccccc3c21      MOLT-4 leukemia            -12.5
3  O=C(CSc1nnc2n1S(=O)(=O)c1ccccc1N2c1ccccc1)Nc1nc2ccc(F)cc2s1      MOLT-4 leukemia             86.8
4  COC(=O)c1n[nH]c2ccc3nc(-c4cn[nH]c4C(F)(F)F)c4c(c3c12)CCCC4      MOLT-4 leukemia             50.4

**Q:** Short answer please: growth, MOLT-4 leukemia, entry C=C(C)[C@@H]1CC[C@]2(C(=O)OC)CC[C@]3(C)[C@H](CC[C@@H]4[C@@]5(C)C/C(=C/NC(N)=S)C(=O)C(C)(C)[C@@H]5CC[C@]43C)[C@@H]12
**A:** 70.3

**Q:** Moving on to CCOC(=O)c1nc(Nc2ccc(NC(=O)Nc3ccc(F)cc3)cc2)c2ccccc2n1
**A:** 98.5

**Q:** Entry to check: C[C@]12CC[C@@H]3c4ccc(O)c([N+](=O)[O-])c4CC[C@H]3[C@@H]1CCC2=O
**A:** 80.4

**Q:** Another molecule: O=C(Cn1cc(CN2CCCCCC2)nn1)Nc1ccc2c(ccn2Cc2ccccc2)c1
**A:** 89.9

**Q:** Also need O=[N+]([O-])c1ccc(-c2nc(N3CCOCC3)c3c4c(sc3n2)CCCC4)cc1 , thanks.
**A:** 86.4

**Q:** Here is the next molecule: C#Cc1cccc(Nc2ncnc3ccc(-c4cnc(N)nc4)cc23)c1
**A:** 19.6

**Q:** Lookup O=C(Nn1c2c(sc1=NCc1ccccc1)C(=O)c1ccccc1C2=O)c1cc2ccc1CCc1ccc(cc1)CC2
**A:** 21

**Q:** Next entry: COc1cc(C(=O)n2nc(N3CCN(C)CC3)c3cc(N)ccc32)cc(OC)c1OC
**A:** 17.3

**Q:** Can you check CCOC(=O)c1c(C)nc2c(c1N)CC(=O)N2Cc1cc(F)cc(Cl)c1 next?
**A:** 95.9

----------
Form field: growth (one value per entry).
- Tested on: HS 578T breast
- test: NCI-60 one-dose screen, 48 h (100 = growth as untreated, 0 = no growth, -100 = all killed)
- run-parameters: 10 µM unless noted
The panel holds about 83,000 compounds, 20% with a hit somewhere; the sample as a whole holds those more often. The source made the active and inactive calls. Rule for the calls: active = growth percent below 10; inactive = the rest.

>>> print(df.to_string())
                                   compound   endpoint_result
0  CCOC(=O)c1c(NC(=O)c2ccc(C(C)C)cc2)sc2c(CN(C)C)c(O)ccc12  86.2% (inactive)
1  CN(Cc1ccc(C(F)(F)F)cc1)CC(O)C(=O)Nc1ccc(Cl)cc1 (configuration not stated)  51.7% (inactive)
2  CCC(=C(c1ccc(OCCN2CCCC2)cc1)c1ccc(OCCN2CCCC2)cc1)c1ccc(Cl)cc1   -47.4% (active)
3  CCOc1ccc(NC(=O)CSc2oc(-c3ccccc3)nc2S(=O)(=O)c2ccc(F)cc2)cc1  74.2% (inactive)
4  COc1cc2c(c(OC)c1OC)C(=O)CC(c1cccc(NC(=O)c3ccc(Br)cc3)c1)O2 (configuration not stated)    71% (inactive)
5  O=C1/C(=C/c2ccc(Cl)cc2)COc2ccc(O)c(O)c21  20.4% (inactive)

Kindly review the next compound as well.
**Q:** Entry N=C(N)c1ccc(-c2ccc(-c3ccc(Cl)cc3)s2)nc1 : reported growth = ?
**A:** 67.5% (inactive)

----------
- System: T-47D breast
- test: NCI-60 one-dose screen, 48 h
- run-parameters: 10 µM unless noted
About 83,000 compounds went through this panel and 20% of them were active in at least one assay; those are over-represented in the sample as a whole. Calls of active or inactive are those of the source. How the source made its calls: active means growth percent below 10; inactive means the rest.
Select the matching outcome among TRUE for active, FALSE for inactive

**Q:** What call does the record list for O=C(Nc1ccc(NC(=O)c2cc(=O)[nH]c3ccccc23)cc1)Nc1cccc(C(F)(F)F)c1 ?
**A:** FALSE

**Q:** Okay, and Cc1ccc(S(=O)(=O)N2CCCC2CO)cc1 (stereo unspecified) ?
**A:** FALSE

**Q:** // same read-out, input: CCCCCCCCCCCCCCCCCCOc1ccccc1CC(=O)OCC[N+]1(C)CCCC1
**A:** FALSE

----------
- Tested on: LOX IMVI melanoma
- test: NCI-60 one-dose screen, 48 h (100 = growth as untreated, 0 = no growth, -100 = all killed)
- run-parameters: 10 µM unless noted
About 83,000 compounds went through this panel and 20% of them were active in at least one assay; those are over-represented in the sample as a whole.
compounds and their reported growth
Give the value, in units of %, as a plain number.

See these solved cases before continuing.
compound	unit-of-measurement	growth
Cc1ccc(Cl)cc1Nc1nc(C(F)(F)F)ccc1C(=O)N/N=C/c1cccnc1	%	18.6
C=C(C)[C@@H]1CC[C@]2(C(=O)O)CC[C@]3(C)[C@H](CC[C@@H]4[C@@]5(C)C[C@@H](Cc6cn(CCO[C@@H]7O[C@H](COC(C)=O)[C@H](OC(C)=O)[C@H](OC(C)=O)[C@H]7OC(C)=O)nn6)[C@H](O)C(C)(C)[C@@H]5CC[C@]43C)[C@@H]12	%	45.2
COCCNC(=O)c1ccc(-c2nc3ccc4[nH]ncc4c3c3c2CCCC3)cc1	%	29.1

API: the following record is the query input.
**Q:** Look at this compound and give its reported growth. Cn1c(=O)c2[nH]c(N/N=C/c3ccccc3Br)nc2n(C)c1=O
**A:** 104
